System: Staph. aureus Russell
log10 of MIC values for the compounds below.
Response schema: value (number) is log10 of MIC in units of µg/mL.

Example results:
Inquiry: Write down measured log10 of MIC (Staph. aureus Russell) for this compound. NC(=O)c1ccc(CC2=C(C(=O)O)N3C(=O)[C@@H](NC(=O)[C@H](N)c4ccccc4)[C@H]3SC2)cc1 [Example 1]
Reply text: 0.40

Inquiry: Give reported log10 of MIC for NC(=O)c1cc(CC2=C(C(=O)O)N3C(=O)[C@@H](NC(=O)[C@H](N)c4ccccc4)[C@H]3SC2)cc(C(N)=O)c1 [Example 5] (Staph. aureus Russell)
Reply text: 0.70

Inquiry: Using Staph. aureus Russell as the test system, report measured log10 of MIC of NC(=O)c1ccc(CC2=C(C(=O)O)N3C(=O)[C@@H](NC(=O)C(C(=O)Oc4ccccc4)c4ccsc4)[C@H]3SC2)cc1 (mixture of isomers) [Example 6] .
Reply text: 1.40

Inquiry: // fetch log10 of MIC for NC(=O)c1ccc(CC2=C(C(=O)O)N3C(=O)[C@@H](NC(=O)[C@H](N)c4ccc(O)cc4)[C@H]3SC2)cc1 [Example 2] ; system: Staph. aureus Russell
Reply text: 0.00

Inquiry: Recall the reported log10 of MIC of NC(=O)c1cccc(CC2=C(C(=O)O)N3C(=O)[C@@H](NC(=O)[C@H](N)c4ccccc4)[C@H]3SC2)c1 [Example 4] when tested on Staph. aureus Russell.
Reply text: 0.40

Inquiry: State measured log10 of MIC of the compound NC(=O)c1ccc(CC2=C(C(=O)O)N3C(=O)[C@@H](NC(=O)C(C(=O)Oc4ccccc4)c4ccccc4)[C@H]3SC2)cc1 (mixture of isomers) [Example 3] with Staph. aureus Russell.
Reply text: 1.00

Continue with the compound presented below.
Inquiry: Look up Staph. aureus Russell data: log10 of MIC of CN(C(=O)C=Cc1ccccc1)C(=O)N[C@@H](C(=O)N[C@@H]1C(=O)N2C(C(=O)O)=C(Cc3ccc(C(N)=O)cc3)CS[C@H]12)c1ccccc1 [Example 7] , then report it.
Reply text: 1.10
